Please go through the items and note down their protein stability index.
B1: CDC25A (parent)
chain: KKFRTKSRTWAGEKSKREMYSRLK

Variants of: B1
Assay: protein stability index of a GFP-peptide fusion (GPS, HEK-293T) (PSI 1-6); higher = more stable;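 note: lentivirally expressed fusions sorted by FACS into six bins by GFP to DsRed ratio, PSI derived from sequencing read proportions per bin multiplied by bin number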
Conditions: c terminus: a fixed tail appended
Note: the reply should be a number with no unit written.

**Q:** May I ask what protein stability index has been recorded for L23M ?
**A:** 2.73

**Q:** May I ask what protein stability index has been recorded for W10R ?
**A:** 3.41

**Q:** May I ask what protein stability index has been recorded for T5W ?
**A:** 3.02

**Q:** May I ask what protein stability index has been recorded for E18H ?
**A:** 2.71

**Q:** May I ask what protein stability index has been recorded for K24Y ?
**A:** 1.37

**Q:** May I ask what protein stability index has been recorded for K2M ?
**A:** 1.76

**Q:** May I ask what protein stability index has been recorded for K14L ?
**A:** 2.51

**Q:** May I ask what protein stability index has been recorded for K16S ?
**A:** 3.04

**Q:** May I ask what protein stability index has been recorded for K16A ?
**A:** 2.62

**Q:** May I ask what protein stability index has been recorded for W10C ?
**A:** 4.02

**Q:** May I ask what protein stability index has been recorded for K1T ?
**A:** 4.1

**Q:** May I ask what protein stability index has been recorded for S7G ?
**A:** 2.78

**Q:** May I ask what protein stability index has been recorded for S15V ?
**A:** 2.52

**Q:** May I ask what protein stability index has been recorded for A11R ?
**A:** 2.25

**Q:** May I ask what protein stability index has been recorded for E18C ?
**A:** 3.07

**Q:** May I ask what protein stability index has been recorded for Y20I ?
**A:** 3.13

**Q:** May I ask what protein stability index has been recorded for A11Q ?
**A:** 3.28

**Q:** May I ask what protein stability index has been recorded for S7E ?
**A:** 2.92

**Q:** May I ask what protein stability index has been recorded for K2Y ?
**A:** 3.09

**Q:** May I ask what protein stability index has been recorded for R8D ?
**A:** 3.57

**Q:** May I ask what protein stability index has been recorded for R22I ?
**A:** 2.01

**Q:** May I ask what protein stability index has been recorded for K2P ?
**A:** 2.6

**Q:** May I ask what protein stability index has been recorded for A11N ?
**A:** 2.91

**Q:** May I ask what protein stability index has been recorded for S21M ?
**A:** 3.36

**Q:** May I ask what protein stability index has been recorded for S21H ?
**A:** 2.69

**Q:** May I ask what protein stability index has been recorded for T9V ?
**A:** 2.55

**Q:** May I ask what protein stability index has been recorded for F3N ?
**A:** 3.12

**Q:** May I ask what protein stability index has been recorded for W10Q ?
**A:** 4.03

**Q:** May I ask what protein stability index has been recorded for S21C ?
**A:** 2.56

**Q:** May I ask what protein stability index has been recorded for K2G ?
**A:** 4.12

**Q:** May I ask what protein stability index has been recorded for K24C ?
**A:** 2.08

**Q:** May I ask what protein stability index has been recorded for S15L ?
**A:** 2.58

**Q:** May I ask what protein stability index has been recorded for T5F ?
**A:** 3.25

**Q:** May I ask what protein stability index has been recorded for K16I ?
**A:** 2.28

**Q:** May I ask what protein stability index has been recorded for K6P ?
**A:** 2.93

**Q:** May I ask what protein stability index has been recorded for G12W ?
**A:** 2.5

**Q:** May I ask what protein stability index has been recorded for T9S ?
**A:** 3.31

**Q:** May I ask what protein stability index has been recorded for F3T ?
**A:** 3.59

**Q:** May I ask what protein stability index has been recorded for F3H ?
**A:** 3.1

**Q:** May I ask what protein stability index has been recorded for M19Y ?
**A:** 3.24

**Q:** May I ask what protein stability index has been recorded for R8E ?
**A:** 4.16

**Q:** May I ask what protein stability index has been recorded for A11E ?
**A:** 2.81

**Q:** May I ask what protein stability index has been recorded for K6A ?
**A:** 1.88

**Q:** May I ask what protein stability index has been recorded for G12Q ?
**A:** 2.86

**Q:** May I ask what protein stability index has been recorded for S15Q ?
**A:** 2.38

**Q:** May I ask what protein stability index has been recorded for L23S ?
**A:** 3.92

**Q:** May I ask what protein stability index has been recorded for S15R ?
**A:** 2.73

**Q:** May I ask what protein stability index has been recorded for S15A ?
**A:** 3.72

**Q:** May I ask what protein stability index has been recorded for K24A ?
**A:** 2.37

**Q:** May I ask what protein stability index has been recorded for E13D ?
**A:** 3.61

**Q:** May I ask what protein stability index has been recorded for M19I ?
**A:** 2.8

**Q:** May I ask what protein stability index has been recorded for F3A ?
**A:** 3.28

**Q:** May I ask what protein stability index has been recorded for K6D ?
**A:** 3.57

**Q:** May I ask what protein stability index has been recorded for R4F ?
**A:** 2.71

**Q:** May I ask what protein stability index has been recorded for M19Q ?
**A:** 4.14

**Q:** May I ask what protein stability index has been recorded for K1A ?
**A:** 3.59

**Q:** May I ask what protein stability index has been recorded for K16W ?
**A:** 2.1

**Q:** May I ask what protein stability index has been recorded for M19A ?
**A:** 3.13

**Q:** May I ask what protein stability index has been recorded for T9N ?
**A:** 3.55

**Q:** May I ask what protein stability index has been recorded for Y20P ?
**A:** 4.12

**Q:** May I ask what protein stability index has been recorded for K14Y ?
**A:** 2.25

**Q:** May I ask what protein stability index has been recorded for M19P ?
**A:** 3.41

**Q:** May I ask what protein stability index has been recorded for R4A ?
**A:** 2.6

**Q:** May I ask what protein stability index has been recorded for M19D ?
**A:** 4.05

**Q:** May I ask what protein stability index has been recorded for R4S ?
**A:** 2.42

**Q:** May I ask what protein stability index has been recorded for A11Y ?
**A:** 2.82

**Q:** May I ask what protein stability index has been recorded for R8S ?
**A:** 2.7

**Q:** May I ask what protein stability index has been recorded for K14P ?
**A:** 3.36

**Q:** May I ask what protein stability index has been recorded for R22V ?
**A:** 3.24

**Q:** May I ask what protein stability index has been recorded for W10V ?
**A:** 3.9

**Q:** May I ask what protein stability index has been recorded for R8T ?
**A:** 2.95

**Q:** May I ask what protein stability index has been recorded for K24I ?
**A:** 2.32

**Q:** May I ask what protein stability index has been recorded for E18S ?
**A:** 2.43

**Q:** May I ask what protein stability index has been recorded for E18I ?
**A:** 3.64

**Q:** May I ask what protein stability index has been recorded for Y20F ?
**A:** 2.88

**Q:** May I ask what protein stability index has been recorded for T5M ?
**A:** 2.62

**Q:** May I ask what protein stability index has been recorded for S7P ?
**A:** 3.13

**Q:** May I ask what protein stability index has been recorded for T5H ?
**A:** 2.81

**Q:** May I ask what protein stability index has been recorded for T9P ?
**A:** 3.12

**Q:** May I ask what protein stability index has been recorded for R17H ?
**A:** 3

**Q:** May I ask what protein stability index has been recorded for K1I ?
**A:** 1.89

**Q:** May I ask what protein stability index has been recorded for M19H ?
**A:** 3.54

**Q:** May I ask what protein stability index has been recorded for T9L ?
**A:** 2.74

**Q:** May I ask what protein stability index has been recorded for M19L ?
**A:** 2.7

**Q:** May I ask what protein stability index has been recorded for K1V ?
**A:** 2.65

**Q:** May I ask what protein stability index has been recorded for A11S ?
**A:** 4.42

**Q:** May I ask what protein stability index has been recorded for R8Y ?
**A:** 4.25

**Q:** May I ask what protein stability index has been recorded for R8M ?
**A:** 2.25

**Q:** May I ask what protein stability index has been recorded for R4Y ?
**A:** 3.63

**Q:** May I ask what protein stability index has been recorded for K6L ?
**A:** 2.36

**Q:** May I ask what protein stability index has been recorded for S15M ?
**A:** 3.2
